- assay-target: DCAF15 RBM39 ternary complex (Homo sapiens, UniProt Q14498+Q66K64, DEL276-383)
- Construct: Amino acids 150 to 331 of RBM39 were cloned into pGEX4T3; GST (from the pGEX4T3 vector, own knowledge) followed by a TEV cleavage site (N); made in house; host or cells: Sf9 baculovirus (DDB1ΔB/DCAF15); E. coli (RBM39 R1R2)
- assay-overview: DCAF15 RBM39 complex formation assay (FRET)
- Format: biochemical
- assay-conditions: FRET ratio, 20 nM DDB1DB/DCAF15, 50 nM RBM39 R1R2, overnight at 4° C.; read-out: DCAF15 RBM39 ternary complex EC50
readout-type: EC50 (nM)

Here are 8 molecules together with their reported answers.
COCC[C@@H]1Cc2cc(Cl)c3c(Cl)c[nH]c3c2NS1(=O)=O (single isomer, unassigned)    1.3
O=S1(=O)Nc2c(cc(Cl)c3c(Cl)c[nH]c23)CN1CC1COC1    1.8
O=S1(=O)Nc2c(cc(Cl)c3c(Cl)c[nH]c23)CN1CCCC(F)(F)F    1.9
Cn1cc(CN2Cc3cc(Cl)c4c(Cl)c[nH]c4c3NS2(=O)=O)cn1    2.7
O=S1(=O)Nc2c(cc(Cl)c3c(Cl)c[nH]c23)CN1Cc1ccnc(Cl)c1    1
O=c1cc(CN2Cc3cc(Cl)c4c(Cl)c[nH]c4c3NS2(=O)=O)cc[nH]1    2.4
Cn1ncnc1CN1Cc2cc(Cl)c3c(Cl)c[nH]c3c2NS1(=O)=O    1.3
COCCN1Cc2cc(F)c3c(C#N)c[nH]c3c2NS1(=O)=O    212

(I) O=S1(=O)Nc2c(cc(Cl)c3c(Cl)c[nH]c23)CN1CC1CCOC1 (stereo not drawn)
(II) Nc1ccc(CN2Cc3cc(Cl)c4c(Cl)c[nH]c4c3NS2(=O)=O)cc1
[Q] Could you please tell me which of these two has the higher EC50: I or II ? Mark your answer with the label of the selected entry.
[A] I

(I) O=S1(=O)Nc2c(cc(Cl)c3c(Cl)c[nH]c23)CN1CCCC(F)(F)C(F)(F)F
(II) CC1(C)Cc2cc(Cl)c3c(Cl)c[nH]c3c2NS1(=O)=O
[Q] Could you please tell me which of these two has the higher EC50: I or II ? Mark your answer with the label of the selected entry.
[A] II

(1) O=S1(=O)Nc2c(cc(Cl)c3c(Cl)c[nH]c23)CN1Cc1ccccc1Cl
(2) O=C(CN1Cc2cc(Cl)c3c(Cl)c[nH]c3c2NS1(=O)=O)N1CCOCC1
(3) O=S1(=O)Nc2c(ccc3c(Cl)c[nH]c23)CN1C1CCCCC1
(4) CC(=O)N1CCC(CN2Cc3cc(Cl)c4c(Cl)c[nH]c4c3NS2(=O)=O)CC1
(5) COCCN1Cc2cc(Cl)c3c(Cl)n[nH]c3c2NS1(=O)=O
[Q] Please rank these molecules by EC50 in descending order. Reply format: the labels, ordered as requested.
[A] 3, 5, 1, 4, 2

###

- assay-target: DCAF15 (DDA1-DDB1ΔB-DCAF15Δpro) (Homo sapiens, UniProt Q66K64, DEL276-383)
- Construct: made in house; host or cells: Sf9 (Bac-to-Bac baculovirus)
- assay-overview: DCAF15 displacement assay (displacement FRET, probe PT7795)
- Format: binding
- assay-conditions: displacement of PT7795 (300 nM), compound 0.01 to 100 μM, 18 hours incubation; read-out: DCAF15 displacement IC50
pIC50: −log10 of the molar value.
readout-type: pIC50

(P) O=S1(=O)Nc2c(cc(Cl)c3c(Cl)c[nH]c23)CN1Cc1ccc(C(F)F)nc1
(Q) O=S1(=O)Nc2c(cc(Cl)c3c(Cl)c[nH]c23)CN1Cc1cncc(Cl)c1
(R) COCC[C@H]1Cc2cc(Cl)c3c(Cl)c[nH]c3c2NS1(=O)=O (single isomer, unassigned)
(S) O=S1(=O)NCc2cc(Cl)c3c(Cl)c[nH]c3c2N1
[Q] Rank the 4 compounds: largest pIC50 first, smallest last. Reply format: the labels, ordered as requested.
[A] Q, P, S, R
(Q: 5.84, P: 5.37, S: 4.56, R: 4.30)

###

- assay-target: DCAF15 RBM39 ternary complex (Homo sapiens, UniProt Q14498+Q66K64, DEL276-383)
- Construct: Amino acids 150 to 331 of RBM39 were cloned into pGEX4T3; GST (from the pGEX4T3 vector, own knowledge) followed by a TEV cleavage site (N); made in house; host or cells: Sf9 baculovirus (DDB1ΔB/DCAF15); E. coli (RBM39 R1R2)
- assay-overview: DCAF15 RBM39 complex formation assay (FRET)
- Assay type: biochemical
- assay-conditions: FRET ratio, 20 nM DDB1DB/DCAF15, 50 nM RBM39 R1R2, overnight at 4° C.; read-out: DCAF15 RBM39 ternary complex EC50
pEC50: −log10 of the molar value.
readout-type: pEC50

CS(=O)(=O)CCCN1Cc2cc(Cl)c3c(Cl)c[nH]c3c2NS1(=O)=O [Compound 77]    9.10

(A) N#Cc1ccc(CN2Cc3cc(Cl)c4c(Cl)c[nH]c4c3NS2(=O)=O)cc1 [Compound 50]
(B) CCCC1Cc2ccc3c(Cl)c[nH]c3c2NS1(=O)=O (stereo not drawn) [Compound 10]
[Q] Of A versus B , which is the one with smaller reported pEC50? Mark your answer with the label of the selected entry.
[A] B
(B: 7.79, A: 8.96)

###

- assay-target: DCAF15 RBM39 ternary complex (Homo sapiens, UniProt Q14498+Q66K64, DEL276-383)
- Construct: Amino acids 150 to 331 of RBM39 were cloned into pGEX4T3; GST (from the pGEX4T3 vector, own knowledge) followed by a TEV cleavage site (N); made in house; host or cells: Sf9 baculovirus (DDB1ΔB/DCAF15); E. coli (RBM39 R1R2)
- assay-overview: DCAF15 RBM39 complex formation assay (FRET)
- Format: biochemical
- assay-conditions: FRET ratio, 20 nM DDB1DB/DCAF15, 50 nM RBM39 R1R2, overnight at 4° C.; read-out: DCAF15 RBM39 ternary complex EC50
readout-type: EC50 (nM)

Cn1ccc(CN2Cc3cc(Cl)c4c(Cl)c[nH]c4c3NS2(=O)=O)cc1=O    123
CCCC1=Cc2ccc3c(Cl)c[nH]c3c2NS1(=O)=O    74.7
O=S1(=O)Nc2c(cc(Cl)c3c(Cl)c[nH]c23)CN1CC1CCOCC1    1.8
O=S1(=O)Nc2c(ccc3c(Cl)c[nH]c23)CN1c1cccnc1    1.1
O=c1cccc(CN2Cc3cc(Cl)c4c(Cl)c[nH]c4c3NS2(=O)=O)[nH]1    4

(a) O=S1(=O)Nc2c(cc(Cl)c3c(Cl)c[nH]c23)CN1Cc1ccncc1Cl
(b) COCCN1Cc2cc(Cl)c3c(C#N)c[nH]c3c2NS1(=O)=O
(c) O=S1(=O)Nc2c(cc(Cl)c3c(Cl)c[nH]c23)CN1Cc1cnccc1Cl
[Q] Order each entry by recorded EC50, climbing from the minimum. Reply format: the labels, ordered as requested.
[A] c, a, b
(c: 1.2 nM, a: 4 nM, b: 6.2 nM)

###

- assay-target: DCAF15 RBM39 ternary complex (Homo sapiens, UniProt Q14498+Q66K64, DEL276-383)
- Construct: Amino acids 150 to 331 of RBM39 were cloned into pGEX4T3; GST (from the pGEX4T3 vector, own knowledge) followed by a TEV cleavage site (N); made in house; host or cells: Sf9 baculovirus (DDB1ΔB/DCAF15); E. coli (RBM39 R1R2)
- assay-overview: DCAF15 RBM39 complex formation assay (FRET)
- Assay type: biochemical
readout-type: EC50 (nM)
Your answer should be a plain number; it is taken to be in nM.

O=S1(=O)Nc2c(cc(Cl)c3c(Cl)c[nH]c23)CN1CC1CCCNC1 (centres unmarked)    1

[Q] Any idea what its EC50 is? The compound is `O=S1(=O)Nc2c(cc(Cl)c3c(Cl)c[nH]c23)CN1CCN1CCOCC1`
[A] 2.1

###

- assay-target: DCAF15 RBM39 ternary complex (Homo sapiens, UniProt Q14498+Q66K64, DEL276-383)
- Construct: Amino acids 150 to 331 of RBM39 were cloned into pGEX4T3; GST (from the pGEX4T3 vector, own knowledge) followed by a TEV cleavage site (N); made in house; host or cells: Sf9 baculovirus (DDB1ΔB/DCAF15); E. coli (RBM39 R1R2)
- assay-overview: DCAF15 RBM39 complex formation assay (FRET)
- Format: biochemical
- assay-conditions: FRET ratio, 20 nM DDB1DB/DCAF15, 50 nM RBM39 R1R2, overnight at 4° C.; read-out: DCAF15 RBM39 ternary complex EC50
- Procedure: Proteins used for the assays were as follows: Human DDA1 (UniProt:Q9BW61), DDB1 (UniPro: Q16531), and DCAF15 (UniProt: Q66K64) coding sequences were cloned into pFastBac1 vectors and were co-expressed in Sf9 cells using Bac-to-Bac baculovirus expression system (Thermo Fisher Scientific). […] EC50 values were calculated using Dotmatics template equation for 4-parameter fit. Results are expressed as % formation using the following equation: […]
pEC50: −log10 of the molar value.
readout-type: pEC50

Here are 2 compounds together with their reported answers.
O=S1(=O)Nc2c(cc(Cl)c3c(Cl)c[nH]c23)CN1CC1CCNCC1    8.92
O=S1(=O)Nc2c(cc(Cl)c3c(Cl)c[nH]c23)CN1Cc1cccnc1    8.92

(1) O=S1(=O)Nc2c(cc(Cl)c3c(Cl)c[nH]c23)CN1Cc1ccccc1
(2) O=c1[nH]ccc(CN2Cc3cc(Cl)c4c(Cl)c[nH]c4c3NS2(=O)=O)c1Cl
(3) O=S1(=O)Nc2c(cc(Cl)c3c(Cl)c[nH]c23)CN1c1ccccc1
[Q] Please rank these compounds by pEC50 in descending order. Reply format: the labels, ordered as requested.
[A] 2, 1, 3
(2: 8.77, 1: 8.51, 3: 8.06)
